Recorded values, source patent US7282507B2.

molecular target: androgen receptor (AdEasy+rAR, L929 cells) (Rattus norvegicus); construct: expressed in transfected cells; host or cells: L929 cells transduced with adenovirus AdEasy+rAR; experiment: L929 Androgen Receptor Functional Assay, Adenovirus Transduction; type: cell-based; conditions: agonist testing, 3000 nM
Record form. Attribute: % Activity, L929 androgen receptor functional assay. Fill in for each entry.
Write the answer as a number in %, unit excluded.

Challenge: What measured % Activity, L929 androgen receptor functional assay goes with CCSCC(C)(O)c1cc2cc(F)c(C(F)(F)F)cc2[nH]1 (centres unmarked) ?
Response given: 2

Challenge: What measured % Activity, L929 androgen receptor functional assay goes with CC(O)(CCS(C)(=O)=O)c1cc2cc([N+](=O)[O-])c(C(F)(F)F)cc2[nH]1 (centres unmarked) ?
Response given: 2

Challenge: What measured % Activity, L929 androgen receptor functional assay goes with CCSCC(C)(O)c1cc2cc([N+](=O)[O-])c(C(F)(F)F)cc2[nH]1 (racemic) [Compound 221] ?
Response given: −1

Challenge: What measured % Activity, L929 androgen receptor functional assay goes with CC(O)(CSc1ccc(O)cc1)c1cc2cc(Cl)c(C(F)(F)F)cc2[nH]1 (centres unmarked) ?
Response given: −5

Challenge: What measured % Activity, L929 androgen receptor functional assay goes with CC(C)SC(C)(CO)c1cc2cc([N+](=O)[O-])c(C(F)(F)F)cc2[nH]1 (racemic) ?
Response given: 9

Challenge: What measured % Activity, L929 androgen receptor functional assay goes with CCCCSCC(C)(O)c1cc2cc([N+](=O)[O-])c(C(F)(F)F)cc2[nH]1 (centres unmarked) ?
Response given: 1

Challenge: What measured % Activity, L929 androgen receptor functional assay goes with CN(C)c1ccc(S(=O)(=O)CC(C)(O)c2cc3cc(Cl)c(C(F)(F)F)cc3[nH]2)cc1 (racemic) ?
Response given: −5

Challenge: What measured % Activity, L929 androgen receptor functional assay goes with CC(O)(CSC1CCCC1)c1cc2cc([N+](=O)[O-])c(C(F)(F)F)cc2[nH]1 (centres unmarked) ?
Response given: 2

====

Biological target: androgen receptor (AdEasy+rAR, L929 cells) (Rattus norvegicus)
Construct: expressed in transfected cells; host or cells: L929 cells transduced with adenovirus AdEasy+rAR
Sequence (P15207 1-902): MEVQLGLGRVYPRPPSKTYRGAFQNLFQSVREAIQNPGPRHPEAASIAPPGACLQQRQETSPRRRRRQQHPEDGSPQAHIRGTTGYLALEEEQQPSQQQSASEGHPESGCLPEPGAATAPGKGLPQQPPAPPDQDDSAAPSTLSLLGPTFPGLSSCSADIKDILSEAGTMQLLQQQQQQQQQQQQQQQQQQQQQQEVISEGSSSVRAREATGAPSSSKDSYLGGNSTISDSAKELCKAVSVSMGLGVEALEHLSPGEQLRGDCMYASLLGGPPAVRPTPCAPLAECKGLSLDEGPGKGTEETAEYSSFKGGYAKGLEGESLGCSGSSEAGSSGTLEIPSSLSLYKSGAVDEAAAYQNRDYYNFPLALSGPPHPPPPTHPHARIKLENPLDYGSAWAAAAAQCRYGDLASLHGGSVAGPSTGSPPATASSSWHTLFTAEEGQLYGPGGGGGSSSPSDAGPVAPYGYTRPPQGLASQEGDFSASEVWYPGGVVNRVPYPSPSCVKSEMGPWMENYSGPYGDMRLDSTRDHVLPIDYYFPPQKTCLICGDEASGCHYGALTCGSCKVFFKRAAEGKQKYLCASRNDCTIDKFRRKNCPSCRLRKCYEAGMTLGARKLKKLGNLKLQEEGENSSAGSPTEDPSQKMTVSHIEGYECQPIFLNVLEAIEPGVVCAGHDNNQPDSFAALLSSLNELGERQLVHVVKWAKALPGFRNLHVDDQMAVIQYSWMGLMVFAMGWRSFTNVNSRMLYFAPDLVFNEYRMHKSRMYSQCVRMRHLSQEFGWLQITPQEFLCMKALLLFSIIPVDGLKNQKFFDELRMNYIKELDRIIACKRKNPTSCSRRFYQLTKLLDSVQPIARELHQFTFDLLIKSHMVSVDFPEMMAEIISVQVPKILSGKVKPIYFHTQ
Assay: L929 Androgen Receptor Functional Assay, Adenovirus Transduction
Type: cell-based
Conditions: agonist testing, 3000 nM
Record form. Attribute: % Activity, L929 androgen receptor functional assay. Fill in for each entry.
Write the answer as a number in %, unit excluded.

Challenge: Requested read-out % Activity, L929 androgen receptor functional assay, target or system androgen receptor (AdEasy+rAR, L929 cells) (Rattus norvegicus), entry CC(O)(CS(=O)(=O)c1ccc(O)cc1)c1cc2cc(Cl)c(C(F)(F)F)cc2[nH]1 (centres unmarked)
Response given: −4

Challenge: Requested read-out % Activity, L929 androgen receptor functional assay, target or system androgen receptor (AdEasy+rAR, L929 cells) (Rattus norvegicus), entry CC(O)(CSc1ccc(N)cc1)c1cc2cc(Cl)c(C(F)(F)F)cc2[nH]1 (centres unmarked)
Response given: 9

Challenge: Requested read-out % Activity, L929 androgen receptor functional assay, target or system androgen receptor (AdEasy+rAR, L929 cells) (Rattus norvegicus), entry CC(O)(Sc1ccc(N)cc1)c1cc2cc([N+](=O)[O-])c(C(F)(F)F)cc2[nH]1 (racemic)
Response given: −4

Challenge: Requested read-out % Activity, L929 androgen receptor functional assay, target or system androgen receptor (AdEasy+rAR, L929 cells) (Rattus norvegicus), entry CC(O)(C[S+]([O-])Cc1ccccc1)c1cc2cc([N+](=O)[O-])c(C(F)(F)F)cc2[nH]1 (mixture of isomers)
Response given: 2

Challenge: Requested read-out % Activity, L929 androgen receptor functional assay, target or system androgen receptor (AdEasy+rAR, L929 cells) (Rattus norvegicus), entry CCSCC(C)(O)c1cc2cc(C#N)c(C(F)(F)F)cc2n1C (centres unmarked)
Response given: 2

Challenge: Requested read-out % Activity, L929 androgen receptor functional assay, target or system androgen receptor (AdEasy+rAR, L929 cells) (Rattus norvegicus), entry CCSCC(C)(O)c1cc2cc([N+](=O)[O-])c(C(F)(F)F)cc2n1S(C)(=O)=O (centres unmarked)
Response given: 0

Challenge: Requested read-out % Activity, L929 androgen receptor functional assay, target or system androgen receptor (AdEasy+rAR, L929 cells) (Rattus norvegicus), entry CCSCC(C)(O)c1[nH]c2cc(C(F)(F)F)c(C#N)cc2c1C (centres unmarked)
Response given: −3

Challenge: Requested read-out % Activity, L929 androgen receptor functional assay, target or system androgen receptor (AdEasy+rAR, L929 cells) (Rattus norvegicus), entry CCC(O)(CS(=O)(=O)CC)c1cc2cc([N+](=O)[O-])c(C(F)(F)F)cc2[nH]1 (centres unmarked)
Response given: 3

====

target: androgen receptor (AdEasy+rAR, COS-7 cells) (Rattus norvegicus, UniProt P15207); construct: expressed in transfected cells; host or cells: COS-7 cells transduced with adenovirus AdEasy+rAR; assay: COS-7 Whole-Cell Androgen Receptor Binding Assay, Adenovirus Transduction; conditions: concentration of 3000 nM
Strictly below 10% in % Inhibition, COS Binding: 1. Otherwise: -1.

Challenge: Quick check: % Inhibition, COS Binding of CCSCC(C)(O)c1cc2cc(Cl)ccc2n1S(C)(=O)=O (racemic) [Compound 154] under 10%?
Response given: -1

Challenge: Quick check: % Inhibition, COS Binding of COc1ccc(SCC(C)(O)c2cc3cc(Cl)c(C(F)(F)F)cc3n2S(C)(=O)=O)cc1 (racemic) [Compound 130] under 10%?
Response given: 1

Challenge: Quick check: % Inhibition, COS Binding of CC(O)(C[S+]([O-])Cc1ccccc1)c1cc2cc([N+](=O)[O-])c(C(F)(F)F)cc2[nH]1 (mixture of isomers) [Compound 161] under 10%?
Response given: -1

Challenge: Quick check: % Inhibition, COS Binding of C[S+]([O-])CCC(C)(O)c1cc2cc([N+](=O)[O-])c(C(F)(F)F)cc2[nH]1 (mixture of isomers) [Compound 50] under 10%?
Response given: 1

====

Target: androgen receptor (AdEasy+rAR, COS-7 cells) (Rattus norvegicus)
Construct: expressed in transfected cells; host or cells: COS-7 cells transduced with adenovirus AdEasy+rAR
Sequence (P15207 1-902): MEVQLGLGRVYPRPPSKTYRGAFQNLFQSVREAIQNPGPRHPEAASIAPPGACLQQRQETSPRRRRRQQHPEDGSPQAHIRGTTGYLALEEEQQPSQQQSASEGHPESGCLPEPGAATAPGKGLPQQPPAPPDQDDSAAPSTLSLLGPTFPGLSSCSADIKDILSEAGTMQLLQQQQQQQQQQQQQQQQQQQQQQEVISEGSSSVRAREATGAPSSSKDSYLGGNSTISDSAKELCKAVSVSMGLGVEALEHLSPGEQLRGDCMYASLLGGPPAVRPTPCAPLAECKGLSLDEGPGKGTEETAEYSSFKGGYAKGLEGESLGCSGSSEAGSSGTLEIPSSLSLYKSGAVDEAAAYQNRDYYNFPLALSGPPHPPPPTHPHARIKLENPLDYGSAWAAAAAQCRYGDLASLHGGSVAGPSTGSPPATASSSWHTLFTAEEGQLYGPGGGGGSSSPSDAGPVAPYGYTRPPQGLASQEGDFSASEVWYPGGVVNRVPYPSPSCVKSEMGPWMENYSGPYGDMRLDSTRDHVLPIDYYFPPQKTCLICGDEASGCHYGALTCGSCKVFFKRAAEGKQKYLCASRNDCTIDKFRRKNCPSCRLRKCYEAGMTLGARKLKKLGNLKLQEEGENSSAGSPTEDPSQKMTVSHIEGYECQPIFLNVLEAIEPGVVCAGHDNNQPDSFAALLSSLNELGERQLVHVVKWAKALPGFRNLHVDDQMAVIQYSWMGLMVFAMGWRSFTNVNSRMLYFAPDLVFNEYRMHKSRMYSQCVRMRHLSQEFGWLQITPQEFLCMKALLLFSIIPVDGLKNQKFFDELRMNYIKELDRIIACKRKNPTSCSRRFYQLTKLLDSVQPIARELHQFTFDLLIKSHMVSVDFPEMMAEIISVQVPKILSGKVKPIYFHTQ
Assay: COS-7 Whole-Cell Androgen Receptor Binding Assay, Adenovirus Transduction
Details: concentration of 3000 nM
Threshold rule: inhibition at 3 µM greater than or equal to 80% is Criterion met; below that, Criterion not met.

Challenge: Given the entry CCSCC(C)(O)c1[nH]c2cc(C(F)(F)F)c([N+](=O)[O-])cc2c1C#N (centres unmarked) [Compound 242] , answer whether its inhibition at 3 µM meets or surpasses 80%.
Response given: Criterion met

Challenge: Given the entry CCSCC(O)c1cc2cc([N+](=O)[O-])c(C(F)(F)F)cc2[nH]1 (centres unmarked) , answer whether its inhibition at 3 µM meets or surpasses 80%.
Response given: Criterion not met

Challenge: Given the entry CCSCC(C)(O)c1cc2cc([N+](=O)[O-])c(C(F)(F)F)cc2n1S(C)(=O)=O (centres unmarked) , answer whether its inhibition at 3 µM meets or surpasses 80%.
Response given: Criterion not met

Challenge: Given the entry CC(O)(CCS(C)(=O)=O)c1cc2cc([N+](=O)[O-])c(C(F)(F)F)cc2[nH]1 (centres unmarked) , answer whether its inhibition at 3 µM meets or surpasses 80%.
Response given: Criterion not met

Challenge: Given the entry CCSCC(C)(O)c1cc2cc(C#N)c(C(F)(F)F)cc2n1C (centres unmarked) , answer whether its inhibition at 3 µM meets or surpasses 80%.
Response given: Criterion met

Challenge: Given the entry CC(O)(CS(C)(=O)=O)c1cc2cc(Cl)c(C(F)(F)F)cc2n1S(C)(=O)=O (centres unmarked) , answer whether its inhibition at 3 µM meets or surpasses 80%.
Response given: Criterion not met

Challenge: Given the entry CCS(=O)(=O)CC(C)(O)c1[nH]c2cc(C(F)(F)F)c(C#N)cc2c1C (single isomer, unassigned) [Compound 251] , answer whether its inhibition at 3 µM meets or surpasses 80%.
Response given: Criterion met
